The reported numbers originate from patent US11279708B2.

- Tested on: MDA-MB-231 breast cancer cells
- methodNotes: SRB cell viability assay
- Format: cell-based
- assayConditions: MDA-MB-231, SRB assay; read-out: IC50, cytotoxicity
measurementName: pIC50
Here pIC50 is given on a logarithmic scale as minus log10 of the concentration in mol/L.

Please state recorded pIC50 (tested on MDA-MB-231 breast cancer cells) of COC(=O)[C@@H]1[C@@H](c2ccccc2)[C@]2(c3ccc(OC)cc3)Oc3cc(OC)cc(OC)c3[C@@]23N=C(C)N[C@@]13O [(−)-9b]
8.46
